Tested on: anti-CD28 scFv
Test: Phage binding ELISA (panning) of clonal phage on anti-CD28 scFv, with or without CD28 soluble protein
Details: clonal phage supernatant; background signal
Criterion: Phage binding ELISA Backgroud signal meeting or surpassing 0.1. Met: t. Not met: f.

>>> answer_label("Phage-214 (MDWCPTYMWSECFN)")
"f"
>>> answer_label("Phage-183 (IDWCPRDLWALCFN)")
"t"
>>> answer_label("Phage-173 (MDWCPMNLWSECFN)")
"t"
>>> answer_label("Phage-170 (MNWCPSDLWHLCFN)")
"f"
>>> answer_label("Phage-327 (MHWCPRDLWHVCFN)")
"f"
>>> answer_label("Phage-176 (MDWCPSDLWHECFH)")
"f"
>>> answer_label("Phage-184 (MHWCPINLWNECFS)")
"f"
>>> answer_label("Phage-253 (MVGCATSMWNRCLT)")
"t"
